assay-method-text: chemical genetic growth profiling, strain panel (AID 1159580);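 further: tested at 20 µM; growth read once vehicle control cultures reached saturation at 30 °C; 1 = growth at the plate median or of vehicle wells; lower values mean less growth of the strain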
condition-details: S. cerevisiae deletion strains, growth OD, locus YAL026C, strain drs2, active compounds read low
The whole screen tested about 5,500 compounds, of which about 2,000 (36%) were called active. Roughly 18% stayed inconclusive and do not appear here. This is one part of the list.
measured-attribute: normalized growth
# answer = number (no unit)

                                   compound  reading
0  CC(=O)Oc1ccc2c(c1OC(C)=O)OCC1(O)Cc3c(cc(OC(C)=O)c(OC(C)=O)c3OC(C)=O)C21 (stereo not given)     1.03
1  OCC(O)C(O)C(O)C(O)C(O)CO (stereo not given)    0.991
2  CC1(C)C(=O)C=C[C@@]2(C)C1C[C@@H](O)[C@]1(C)C2CC[C@@]2(C)[C@H](c3ccoc3)OC(=O)[C@H]3O[C@]321 (stereo not given in full)    0.996
3  Oc1ccc2c(c1)OCC1(O)Cc3cc(O)c(O)cc3C21 (stereo not given)     1.03
4  COC(=O)[C@@]1(C)CCC[C@]2(C)c3ccc(O)c(C(C)C)c3CCC12 (stereo not given in full)    0.929
5  CC1(C)C=CC(=O)[C@@]2(C)C1CC(=O)[C@]1(C)C2CC[C@@]2(C)[C@H](c3ccoc3)OC(=O)C3OC321 (stereo not given in full)        1

Query: For the compound shown here, `CC/C(=C(/CC)c1ccc(O)cc1)c1ccc(O)cc1` , give the reported normalized growth.
Reply: 0.958

Query: State the recorded normalized growth for this entry: CC(=O)Oc1ccc2c(c1C(C)C)CCC1C(C)(C)CCC[C@]21C (stereo not given in full)
Reply: 1.03

Query: Fill blank: measured normalized growth of the compound `O=C(O)C1=C[C@@H](O)[C@@H](O)[C@H](O)C1` is ____.
Reply: 0.978

Query: Would you kindly share the measured normalized growth for CCC(N)C(O)c1ccc(O)c(O)c1 (stereo not given) ?
Reply: 0.987

* * *

assay-method-text: chemical genetic growth profiling, strain panel (AID 1159580)
condition-details: S. cerevisiae deletion strains, growth OD, locus YLR027C, strain aat2, active compounds read low
The campaign covered roughly 5,500 compounds. About 2,000 (36%) were called active. Inconclusive results (about 18%) are left out. The list shows a part of the results.
measured-attribute: normalized growth
In your answer, state the number alone without any accompanying words.

Worked examples, 5 compounds total:
compound	normalized growth
C[C@]12CCC3c4ccc(OS(=O)(=O)O)cc4CCC3C1CC[C@H]2O (stereo partly specified)	0.997
CCC1OC(=O)[C@H](C)C(=O)[C@H](C)[C@@H](OC2O[C@H](C)C[C@H](N(C)C)[C@H]2O)[C@](C)(OC)C2(CCCn3cnc(-c4cccnc4)c3)C[C@@H](C)C(=O)[C@H](C)[C@H]3N(C2)C(=O)O[C@]13C (stereo partly specified)	0.99
NC(=O)CN1CCCC1=O	0.999
COc1ccccc1/C=C\C(=O)O	1.01
CC/C(=C(/CC)c1ccc(O)cc1)c1ccc(O)cc1	1.01

Query: Report normalized growth for `COC1=CC(=O)C(O)=C/C1=C\C=C\c1ccccc1` please.
Reply: 0.0574

Query: Recorded normalized growth of `O=c1c(O)c(-c2ccc(O)cc2O)oc2cc(O)cc(O)c12` , please.
Reply: 1.01

Query: Consider the compound CNC(C)C(O)c1ccccc1 (stereo unspecified) and give its measured normalized growth.
Reply: 1.02

Query: May I ask what normalized growth has been recorded for C[C@]12CCC3c4ccc(O)cc4CCC3C1C[C@@H](O)[C@@H]2O (stereo partly specified) ?
Reply: 1.01

Query: Entry under review: `NC(=O)c1ncn([C@@H]2O[C@H](CO)[C@@H](O)[C@H]2O)n1` . Reported normalized growth?
Reply: 0.983

Query: Give the measured normalized growth of CCN(Cc1ccncc1)C(=O)C(CO)c1ccccc1 (stereo unspecified) .
Reply: 1.02

Query: Reported normalized growth, compound `CCCCOc1cc(C(=O)NCCN(CC)CC)c2ccccc2n1` : ____
Reply: 0.97

Query: So what's the measured normalized growth for this one? `CNC(=O)Oc1cccc2c1OC(C)(C)O2`
Reply: 0.99

Query: Which normalized growth reading was recorded for the compound `COc1ccc(-c2oc3cc(O[C@H]4O[C@H](CO)[C@@H](O)[C@H](O)[C@H]4O)c(OC)c(O)c3c(=O)c2OC)cc1O` ?
Reply: 1.01

Query: Recorded normalized growth for CCCCCCC(C)OC(=O)COc1ccc(Cl)cc1Cl (stereo unspecified) , please?
Reply: 0.995

Query: Need normalized growth of CC(=O)O[C@]1(C(C)=O)CCC2C3C=C(Cl)C4=CC(=O)[C@@H]5C[C@@H]5[C@]4(C)C3CC[C@@]21C (stereo partly specified) , thanks.
Reply: 1.02

Query: Recorded normalized growth of NC(=O)NCCCC(N)C(=O)O (stereo unspecified) , please.
Reply: 0.996

Query: Request the reported normalized growth associated with `COC1=CC(=O)C(C(=O)c2ccccc2)=CC1=O`
Reply: 0.976

Query: Report normalized growth for CCC(c1ccc(O)cc1)C(CC)c1ccc(O)cc1 (stereo unspecified) please.
Reply: 0.829

Query: Fill in: normalized growth of `O=c1c(O)c(-c2ccc(O)c(O)c2)oc2cc(O)cc(O)c12` is ___
Reply: 0.893

Query: I would be grateful if you could share the reported normalized growth for C[C@@H]1O[C@@H](OC[C@H]2OC(Oc3c(-c4ccc(O)c(O)c4)oc4cc(O)cc(O)c4c3=O)[C@H](O)[C@@H](O)[C@@H]2O)[C@H](O)[C@H](O)[C@H]1O (stereo partly specified) .
Reply: 1.01

* * *

assay-method-text: chemical genetic growth profiling, strain panel (AID 1159580)
condition-details: S. cerevisiae deletion strains, growth OD, locus YMR307W, strain GAS1, active compounds read low
Among all 5,500 compounds or so, about 2,000 (36%) were called active. Not shown: some 18% with an inconclusive outcome. The list shows a part of the results.
measured-attribute: normalized growth
Would you mind answering with just the numeric figure?

Query: Sample `Oc1ccc(-c2nc(-c3ccc(F)cc3)c(-c3ccncc3)[nH]2)cc1` — what was its normalized growth?
Reply: 1.02

Query: Form field: reported normalized growth of CCCCC1C(=O)N(c2ccccc2)N(c2ccc(O)cc2)C1=O (stereo unspecified)
Reply: 0.952

Query: Could you tell me which normalized growth is on file for CC(=O)OC1CN2CCC1CC2 (stereo unspecified) ?
Reply: 1.1

* * *

normalized growth values by entry
assay-method-text: chemical genetic growth profiling, strain panel (AID 1159580);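 further: tested at 20 µM; growth read once vehicle control cultures reached saturation at 30 °C; 1 = growth at the plate median or of vehicle wells; lower values mean less growth of the strain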
condition-details: S. cerevisiae deletion strains, growth OD, locus YNR049C, strain mso1, active compounds read low
Hit rate of the full screen: of about 5,500 compounds, about 2,000 (36%) were called active. Another 18% or so got no clear call; they are omitted. The list shows a part of the results.
# respond with the number and nothing more

For orientation, consider the following solved cases.
>>> df
              given_smiles  measured_attribute  reading
0   COC(=O)c1c(C)cc(O)cc1O   normalized growth        1
1   CCC(=O)c1c(O)cc(O)cc1O   normalized growth    0.987
2  CCOC(=O)c1c(C)cc(O)cc1O   normalized growth     0.92

Query: Item under review: `Cc1cc(OC(=O)c2c(C)cc(O)cc2O)cc(O)c1C(=O)O` . Reported normalized growth?
Reply: 0.975

* * *

assay-method-text: chemical genetic growth profiling, strain panel (AID 1159580);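 further: tested at 20 µM; growth read once vehicle control cultures reached saturation at 30 °C; 1 = growth at the plate median or of vehicle wells; lower values mean less growth of the strain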
condition-details: S. cerevisiae deletion strains, growth OD, locus YHR205W, strain SCH9, active compounds read low
Screen size: about 5,500 compounds; about 2,000 (36%) were called active. Another 18% or so got no clear call; they are omitted. The list shows a part of the results.
measured-attribute: normalized growth
Just the number, please, no unit attached.

Some compounds with known normalized growth results, for comparison:
>>> print(df.to_string())
                                   compound  measured_attribute  reading
0  Cc1ccc(C)n1-c1ccc(/C=C2/C(=O)Nc3ccccc32)cc1   normalized growth    0.857
1   O=C(Nc1ccccc1)Nc1ccc(Cl)cc1[N+](=O)[O-]   normalized growth    0.874
2            COCCCNC(=S)N/N=C\c1cc(Br)ccc1O   normalized growth    0.943
3  Cc1c(C)c(C)c(C(O)c2ccccc2)c(C)c1C (stereo unspecified)   normalized growth    0.775
4         COc1ccc(/C=C2/C(=O)Nc3ccccc32)cc1   normalized growth    0.577

// next entry
Query: For the compound shown here, `CC(C)(C)C(=O)NC(=S)N/N=C\c1cc(Cl)cc(Cl)c1O` , give the reported normalized growth.
Reply: 0.248

* * *

Recorded normalized growth for the following compounds
assay-method-text: chemical genetic growth profiling, strain panel (AID 1159580);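 further: tested at 20 µM; growth read once vehicle control cultures reached saturation at 30 °C; 1 = growth at the plate median or of vehicle wells; lower values mean less growth of the strain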
condition-details: S. cerevisiae deletion strains, growth OD, locus YDL185W, strain tfp1, active compounds read low
The whole screen tested about 5,500 compounds, of which about 2,000 (36%) were called active. Roughly 18% stayed inconclusive and do not appear here. The list shows a part of the results.
Give only the figure.

                                   compound  measured_attribute  reading
0  COc1ccc2c(c1)CCC1C2CC[C@@]2(C)C1CC[C@@H]2O (stereo partly specified)   normalized growth    0.961
1  CCN1C[C@]2(C)CC[C@H](OC)[C@]34C2[C@H](O)[C@]2(OCO[C@@]25C[C@H](OC)[C@H]2C[C@]3(O)C5[C@H]2O)C14   normalized growth        1

Query: Suppose we examine the compound COc1ccc2c(c1)CCC1C2CCC2(C)C1C[C@@H](O)C2O (stereo partly specified) ; what normalized growth value has been reported?
Reply: 0.992

Query: Request the reported normalized growth associated with C[C@]12CCC3c4ccc(OS(=O)(=O)O)cc4CCC3C1CC[C@H]2O (stereo partly specified)
Reply: 0.99

Query: # lookup: normalized growth of `COC(=O)c1c(C)cc(OC)cc1O`
Reply: 0.987

Query: Dear colleague, I am looking for the recorded normalized growth of the following compound: `Cc1cc(OC(=O)c2c(C)cc(OC(=O)c3c(C)cc(O)cc3O)cc2O)cc(O)c1C(=O)O`
Reply: 0.99

Query: Please report the recorded normalized growth for `CCc1cccc(CC)c1N(COC)C(=O)CCl` .
Reply: 1.02

Query: Looking for the measured normalized growth of CCCCCCC(C)OC(=O)COc1ccc(Cl)cc1Cl (stereo unspecified) , can you help?
Reply: 1.01

Query: Give its normalized growth value. Item: `CCOC(=O)c1c(C)cc(OC)cc1O`
Reply: 0.984

Query: Fill in: normalized growth of `CC(C)[N+](C)(CCC(C(N)=O)(c1ccccc1)c1ccccc1)C(C)C` is ___
Reply: 0.996

Query: // query normalized growth value for entry `CCC(=O)c1c(O)cc(O)cc1O`
Reply: 0.972
